# test_description: Plasma pharmacokinetics in patients (LC-MS/MS, noncompartmental analysis)
# Format: in vivo, human
# assay_setup: human, plasma, po, 16 mg, 16 mg oral, day 21; read-out: Tmax Median (range)
measured_quantity: Tmax (h)
Give the quantity in h, number only.

Lookup: Quick one: Tmax of Cn1c(=O)c(F)c(Nc2ccc(I)cc2F)c2c(=O)n(C[C@@H](O)CO)cnc21 ?
Found: 3.4

----------
# test_description: Plasma pharmacokinetics in patients (LC-MS/MS, noncompartmental analysis)
# Assay type: in vivo, human
# assay_setup: human, plasma, po, 3.2 mg, 3.2 mg oral, day 1; read-out: Tmax Median (range)
measured_quantity: Tmax (h)
Give the quantity in h, number only.

Lookup: Quick one: Tmax of Cn1c(=O)c(F)c(Nc2ccc(I)cc2F)c2c(=O)n(C[C@@H](O)CO)cnc21 ?
Found: 1.55
